# credit: the MegaScale stability set (Tsuboyama et al. 2023)

B1: HHH_rd2_0155 (parent)
chain: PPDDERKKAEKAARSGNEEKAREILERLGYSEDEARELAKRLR

Variants of: B1
Run Description: folding stability dG (cDNA display proteolysis); higher = more stable
Details: PBS, room temperature
Readout Label: folding stability dG (kcal/mol)

Y30Q    0.238
R22A    1.58
R41F    1.91
E37I    2.21
Y30R    0.36
P2M    2.23
E37T    1.95
R6Q    1.73
I24W    1.38
R41S    1.43
E5K    1.45
E19S    1.9
E32P    2.48
P1M    2.17
R27A    2.07
I24S    0.659
R43A    2.29
Y30G    0.222
G29M    0.484
L42Y    2.46
K7N    1.85
R14G    1.04
E10P    1.05
A39N    0.26
L25K    -0.071
R14I    1.84
A21N    0.934
K8L    2.22
S31Q    1.2
K8Y    1.62
R36Q    1.34
D3G    1.98
E23F    1.61
R14Q    1.89
K7G    1.76
E10M    2.33
E32C    1.86
K8F    1.75
G16M    1.33
K40N    1.79
R36C    0.956
K11N    2.11
K40S    1.97
R22Q    1.41
N17T    0.954
P2N    2.15
